For reference, Ki measured on Carbonic anhydrase 2 (Homo sapiens):
Give bare numbers, in nM.

Sample answers from the record:
NS(=O)(=O)c1ccc(-c2cnc3ccccc3c2)cc1 :: 2.5
NS(=O)(=O)c1ccc(-c2ccc3[nH]ccc3c2)cc1 :: 0.95

Below is a list of molecules. For each, state its recorded Ki.
1. NS(=O)(=O)c1ccc(-c2cccnc2)cc1
2. NS(=O)(=O)c1ccc(-c2ccc3c(c2)OCO3)cc1
3. Nc1ccc(-c2ccc(S(N)(=O)=O)cc2)cc1
4. NS(=O)(=O)c1ccc(-c2cc3ccccc3s2)cc1

1: 16.6; 2: 18; 3: 12.3; 4: 0.84

* * *

- target or test system: Carbonic anhydrase 1 (Homo sapiens, UniProt P00915)
- Sequence (P00915 whole entry): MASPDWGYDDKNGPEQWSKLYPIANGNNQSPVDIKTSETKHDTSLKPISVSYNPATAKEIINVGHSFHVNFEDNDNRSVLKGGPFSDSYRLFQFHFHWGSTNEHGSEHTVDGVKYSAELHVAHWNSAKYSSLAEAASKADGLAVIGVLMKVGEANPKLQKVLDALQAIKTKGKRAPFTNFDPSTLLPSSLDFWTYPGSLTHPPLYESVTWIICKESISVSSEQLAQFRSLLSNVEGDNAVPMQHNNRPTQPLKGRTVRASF
pKi: −log10 of the molar value.
I would appreciate it if you labelled entries TRUE when pKi is 6 or higher, otherwise FALSE.

NS(=O)(=O)c1ccc(-c2cc3ccccc3s2)cc1 :: TRUE

Could you now consider this next molecule?
Check if pKi >= 6 (inclusive). Item: Nc1ccc(-c2ccc(S(N)(=O)=O)cc2)cc1
FALSE

* * *

For reference, pKi measured on Carbonic anhydrase 12 (Homo sapiens, UniProt O43570):
Answers are plain numbers, as −log10 of the molar value.

Sample answers from the record:
NS(=O)(=O)c1ccc(-c2cc3ccccc3[nH]2)cc1 :: 8.25
Nc1cccc(-c2ccc(S(N)(=O)=O)cc2)c1 :: 8.37
NS(=O)(=O)c1ccc(-c2ccc3c(c2)OCO3)cc1 :: 8.28

Below is a list of molecules. For each, state its recorded pKi.
1. NS(=O)(=O)c1ccc(-c2ccc(-c3ccc(S(N)(=O)=O)cc3)cc2)cc1
2. N#Cc1ccc(-c2ccc(S(N)(=O)=O)cc2)cc1
3. NS(=O)(=O)c1ccc(-c2ccc(Cn3cccn3)cc2)cc1

1. 8.31
2. 7.85
3. 7.42

Below is a list of molecules. For each, state its recorded pKi.
1. NS(=O)(=O)c1ccc(-c2cccnc2)cc1
2. NS(=O)(=O)c1ccc(-c2cc3ccccc3n2S(=O)(=O)c2ccccc2)cc1
3. Nc1ccc(-c2ccc(S(N)(=O)=O)cc2)cc1
4. COC(=O)c1cccc(-c2ccc(S(N)(=O)=O)cc2)c1
5. COc1ccc2[nH]c(-c3ccc(S(N)(=O)=O)cc3)cc2c1

1: 7.69; 2: 7.47; 3: 7.44; 4: 7.71; 5: 6.38

Below is a list of molecules. For each, state its recorded pKi.
1. CC(C)c1ccccc1-c1ccc(S(N)(=O)=O)cc1
2. NS(=O)(=O)c1ccc(-c2cn(S(=O)(=O)c3ccccc3)c3ccccc23)cc1
3. NS(=O)(=O)c1ccc(-c2ccccc2)cc1

9.24
7.01
7.03

* * *

- target or test system: Carbonic anhydrase 9 (Homo sapiens)
measurement label: Ki (nM)
Answers are plain numbers, in nM.

Sample answers from the record:
NS(=O)(=O)c1ccc(-c2ccc(Cn3cccn3)cc2)cc1 :: 216
NS(=O)(=O)c1ccc(-c2cccnc2)cc1 :: 78.1
NS(=O)(=O)c1ccc(-c2ccc3ccccc3c2)cc1 :: 0.22
NS(=O)(=O)c1ccc(-c2cc3ccccc3n2S(=O)(=O)c2ccccc2)cc1 :: 100

Below is a list of compounds. For each, state its recorded Ki.
1. NS(=O)(=O)c1ccc(-c2cc3ccccc3s2)cc1
2. NS(=O)(=O)c1ccc(-c2cnc3ccccc3c2)cc1
3. NS(=O)(=O)c1ccc(-c2ccc(-c3ccc(S(N)(=O)=O)cc3)cc2)cc1
4. NS(=O)(=O)c1ccc(-c2ccc3c(c2)OCO3)cc1

0.21
0.18
240
258

* * *

- target or test system: Carbonic anhydrase 2 (Homo sapiens, UniProt P00918)
Could you please report measured pKi for the items listed next?
Answers are plain numbers, as −log10 of the molar value.

NS(=O)(=O)c1ccc(-c2ccc(-c3ccc(Br)cc3)cc2)cc1 :: 6.12
COC(=O)c1cccc(-c2ccc(S(N)(=O)=O)cc2)c1 :: 7.85
NS(=O)(=O)c1ccc(-c2ccc(-c3ccc(S(N)(=O)=O)cc3)cc2)cc1 :: 6.49

Below is a list of compounds. For each, state its recorded pKi.
1. NS(=O)(=O)c1ccc(-c2cc3ccccc3o2)cc1
2. COc1ccc2[nH]c(-c3ccc(S(N)(=O)=O)cc3)cc2c1
3. NS(=O)(=O)c1ccc(-c2ccc3ccccc3c2)cc1
4. NS(=O)(=O)c1ccc(-c2cc3ccccc3n2S(=O)(=O)c2ccccc2)cc1
5. NS(=O)(=O)c1ccc(-c2ccccc2)cc1

9.15
6.12
9.16
7.93
9.10

* * *

- target or test system: Carbonic anhydrase 9 (Homo sapiens)
- experimental details: Potency index, ratio of Ki for acetazolamide to Ki for test compound for inhibition of human carbonic anhydrase 9
measurement label: Ratio Ki
One number for each entry.

Sample answers from the record:
NS(=O)(=O)c1ccc(-c2ccc3ccccc3c2)cc1 :: 100
NS(=O)(=O)c1ccc(-c2cn(S(=O)(=O)c3ccccc3)c3ccccc23)cc1 :: 100
NS(=O)(=O)c1ccc(-c2ccc3[nH]ccc3c2)cc1 :: 100
NS(=O)(=O)c1ccc(-c2cc3ccccc3o2)cc1 :: 100
NS(=O)(=O)c1ccc(-c2cc3ccccc3s2)cc1 :: 100

Below is a list of compounds. For each, state its recorded Ratio Ki.
1. NS(=O)(=O)c1ccc(-c2cnc3ccccc3c2)cc1
2. NS(=O)(=O)c1ccc(-c2ccccc2)cc1

1: 100; 2: 100

* * *

For reference, Ki measured on UniProt:P00915:

Sample answers from the record:
COc1cc(-c2ccc(S(N)(=O)=O)cc2)cc(OC)c1OC :: 9.52 µM
NS(=O)(=O)c1ccc(-c2cccnc2)cc1 :: 2.4 µM
NS(=O)(=O)c1ccc(-c2cccc(-c3ccc(S(N)(=O)=O)cc3)c2)cc1 :: > 10 µM
NS(=O)(=O)c1ccc(-c2ccc(-c3ccc(S(N)(=O)=O)cc3)cc2)cc1 :: > 10 µM
NS(=O)(=O)c1ccc(-c2cnc3ccccc3c2)cc1 :: 0.0352 µM

Next molecule, please.
Report Ki for NS(=O)(=O)c1ccc(-c2ccc3c(c2)OCO3)cc1
> 10 µM
